From: the RNAGym collection of RNA variant scans (doi:10.1002/anie.201605470)

B1: Osa-1-4 twister ribozyme (parent)
chain: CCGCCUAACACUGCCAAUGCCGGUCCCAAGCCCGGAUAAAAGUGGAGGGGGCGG

variants of: B1; experiment: self-cleavage, relative activity (ratio to wild type); higher = more cleavage; co-transcriptional
# binarize self-cleavage: threshold 0.1 inclusive, high side 1 (yes), low side 0 (no)

- CCGCCUAACACUGCCAAUGCCGGUCCCAAGCCCGGAUAAAAGUGGAGGGGUCAG [G51U G53A]: 1 (yes)
- CCGCCUAACACUGCCAAUUCCGGUCCCAAGCCCGGAUAAAAGUGGAGGGAGCGG [G19U G50A]: 1 (yes)
- CCGCCUAACACUGCCAAUGCAGAUCCCAAGCCCGGAUAAAAGUGGAGGGGGCGG [C21A G23A]: 0 (no)
- CCGCCUAACACUGCCAAUGCCGGUCCUAAGCCCGGAUAAAAGUGGAUGGGGCGG [C27U G47U]: 1 (yes)
- CCGCCUAACGCUGCCAAUGCCGGUCCAAAGCCCGGAUAAAAGUGGAGGGGGCGG [A10G C27A]: 1 (yes)

Challenge: I'd appreciate it if you could say whether CCGCCUAACACUGCCAAUGCCGGUCCCAAGCCAGGAUAAAAGUGGAAGGGGCGG [C33A G47A] has self-cleavage at least equal to 0.1.
Response given: 0 (no)

Challenge: I'd appreciate it if you could say whether CCGCCUAACACUUCCAAUGCCGGUCUCAAGCCCGGAUAAAAGUGGAGGGGGCGG [C26U G13U] has self-cleavage at least equal to 0.1.
Response given: 0 (no)

Challenge: I'd appreciate it if you could say whether CCGCCUAACACUGCCAAUGCCGGUCCCAAGCCCGGAUAAAAGUGGAGGGCGUGG [C52U G50C] has self-cleavage at least equal to 0.1.
Response given: 1 (yes)
